# tested.on: MMP-9 (Homo sapiens, UniProt P14780)
# Construct: purchased Sino Biological 10327-HNAH
# Sequence (P14780 107-707 limits assumed): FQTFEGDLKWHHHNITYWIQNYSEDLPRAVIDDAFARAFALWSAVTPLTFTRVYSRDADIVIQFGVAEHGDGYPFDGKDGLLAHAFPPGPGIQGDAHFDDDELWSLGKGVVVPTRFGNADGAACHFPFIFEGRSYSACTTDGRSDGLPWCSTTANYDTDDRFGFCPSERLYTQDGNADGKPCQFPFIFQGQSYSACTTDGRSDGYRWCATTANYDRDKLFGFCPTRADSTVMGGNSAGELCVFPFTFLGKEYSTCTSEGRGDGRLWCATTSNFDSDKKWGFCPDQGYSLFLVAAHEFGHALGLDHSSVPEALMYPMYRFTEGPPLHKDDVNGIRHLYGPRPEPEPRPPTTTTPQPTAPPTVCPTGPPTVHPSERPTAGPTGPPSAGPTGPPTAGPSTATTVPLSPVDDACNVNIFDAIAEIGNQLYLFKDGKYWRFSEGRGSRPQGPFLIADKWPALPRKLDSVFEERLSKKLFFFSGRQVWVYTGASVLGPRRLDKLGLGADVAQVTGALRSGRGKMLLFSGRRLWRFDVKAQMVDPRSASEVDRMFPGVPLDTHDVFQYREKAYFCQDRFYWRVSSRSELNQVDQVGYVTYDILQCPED
# assay.method.text: MMP-9 inhibition assay (fluorogenic peptide substrate)
# Format: biochemical
# Design: scale not given here
# reported.conditions: MMP-9; concentration 0.39 µM
Provide the recorded remaining enzyme activity (% of control) for the entries that follow.
The answer should be a number; do not append a unit.

Input: Give its remaining enzyme activity (% of control) value. Item: O=C(CNC(=O)NC12CC3CC(CC(C3)C1)C2)NCCSCC(=O)NCc1c[nH]nn1 [66+787 Linker 24]
Output: 101.28

Input: Give its remaining enzyme activity (% of control) value. Item: Cc1cc(=O)[nH]c(-n2nc(C)c(CCC(=O)NCc3c[nH]nn3)c2C)n1 [693+787 Linker 1]
Output: 99.91

Input: Give its remaining enzyme activity (% of control) value. Item: Cc1cc(=O)[nH]c(-n2nc(C)c(CCC(=O)NCCSCC(=O)NCc3c[nH]nn3)c2C)n1 [693+787 Linker 24]
Output: 97.78

Input: Give its remaining enzyme activity (% of control) value. Item: O=C(C=CCCCCNC(=O)c1cncc(O)c1)CC(=O)NCC12CC3CC(CC(C3)C1)C2 [66+828 Linker 12]
Output: 103.70

Input: Give its remaining enzyme activity (% of control) value. Item: Cc1cc(=O)[nH]c(-n2nc(C)c(CCC(=O)NCCCCCCCCNC(=O)c3cncc(O)c3)c2C)n1 [693+828 Linker 4]
Output: 94.18

Input: Give its remaining enzyme activity (% of control) value. Item: O=C(CNC(=O)NC12CC3CC(CC(C3)C1)C2)NCCCCCCCCNC(=O)c1cncc(O)c1 [66+828 Linker 4]
Output: 100.82

Input: Give its remaining enzyme activity (% of control) value. Item: Cc1cc(=O)[nH]c(-n2nc(C)c(CCC(=O)NCCCCCCCCNC(=O)CCC(=O)NCc3c[nH]nn3)c2C)n1 [693+787 Linker 4]
Output: 80.60

---

# tested.on: MMP-2 (Homo sapiens)
# Construct: purchased Sino Biological 10082-HNAH
# Sequence (P08253 110-660): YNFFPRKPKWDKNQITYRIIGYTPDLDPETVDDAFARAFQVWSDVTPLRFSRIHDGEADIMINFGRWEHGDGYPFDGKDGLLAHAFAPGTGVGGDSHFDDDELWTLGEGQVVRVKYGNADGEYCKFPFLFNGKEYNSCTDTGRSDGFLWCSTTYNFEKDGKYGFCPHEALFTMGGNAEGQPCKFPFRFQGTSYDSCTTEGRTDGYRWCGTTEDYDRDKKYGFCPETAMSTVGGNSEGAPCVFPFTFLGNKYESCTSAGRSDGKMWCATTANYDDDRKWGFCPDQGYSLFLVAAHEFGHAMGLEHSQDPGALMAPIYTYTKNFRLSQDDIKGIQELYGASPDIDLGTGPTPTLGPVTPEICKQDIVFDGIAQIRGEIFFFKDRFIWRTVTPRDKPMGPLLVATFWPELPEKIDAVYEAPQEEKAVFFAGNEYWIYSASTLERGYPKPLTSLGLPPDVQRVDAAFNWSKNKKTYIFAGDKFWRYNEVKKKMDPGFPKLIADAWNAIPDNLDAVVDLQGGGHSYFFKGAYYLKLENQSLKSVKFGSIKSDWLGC
# assay.method.text: MMP-2 inhibition assay (fluorogenic peptide substrate)
# Assay type: biochemical
# reported.conditions: mean ± SE; n.d: not detected; Fig. 5d unit inferred, µM; read-out: IC50
readout: IC50 (µM)
Write the number in µM without appending the unit.

Input: Give its IC50 value. Item: Cc1cc(=O)[nH]c(-n2nc(C)c(CCC(=O)NCCNC(=O)CC(=O)/C=C/CCCCNC(=O)c3cncc(O)c3)c2C)n1
Output: 10

Input: Give its IC50 value. Item: O=C(/C=C/CCCCNC(=O)c1cncc(O)c1)CC(=O)NCCNC(=O)Cn1cnc2c(oc3ccccc32)c1=O
Output: 50.3

Input: Give its IC50 value. Item: O=C(/C=C/CCCCC(=O)NCc1c[nH]nn1)CC(=O)NCC12CC3CC(CC(C3)C1)C2
Output: 339

Input: Give its IC50 value. Item: O=C(O)Cn1cnc2c(oc3ccccc32)c1=O
Output: 95.8

Input: Give its IC50 value. Item: O=C(CSCCNC(=O)c1cncc(O)c1)NCCNC(=O)Cn1cnc2c(oc3ccccc32)c1=O
Output: 33.3

Input: Give its IC50 value. Item: Cc1cc(=O)[nH]c(-n2nc(C)c(CCC(=O)NCCOCCOCCNC(=O)c3cncc(O)c3)c2C)n1
Output: 186

Input: Give its IC50 value. Item: O=C(C=CCCCCNC(=O)c1cncc(O)c1)CC(=O)NCC12CC3CC(CC(C3)C1)C2
Output: 488

---

# tested.on: MMP-9 (Homo sapiens, UniProt P14780)
# Construct: purchased Sino Biological 10327-HNAH
# assay.method.text: MMP-9 inhibition assay (fluorogenic peptide substrate)
# Format: biochemical
# Parameters: scale not given here
# reported.conditions: MMP-9, concentration 1.95 µM
# Experimental: The inhibition by the small molecule compounds against MMP-2/MMP-9 was measured using an assay probing the enzyme proteolytic activity on the substrate DNP-Pro-Leu-Gly-Met-Trp-Ser-Arg (Enzo Life Sciences, USA). All assays were performed in the assay buffer containing 50 mM Tris, 100 mM NaCl. […] The rate of hydrolysis was monitored by quantifying the emission at 360 nm (ex: 280 nm). The emission was measured with intervals of the 30 s for 30 min with Synergy H1 Plate Reader (Agilent, USA). […]
Hi! Could you tag entries with remaining enzyme activity (% of control) below 90 as true (1), and those at or above as false (0)? Much appreciated.

Input: Given the entry O=C(CCC(=O)NCc1c[nH]nn1)NCCOCCOCCNC(=O)Cn1cnc2c(oc3ccccc32)c1=O , would its reported remaining enzyme activity (% of control) be below 90?
Output: false (0)

Input: Given the entry Cn1c(O)nc2cc(C(=O)NCCOCCOCCNC(=O)Cn3cnc4c(oc5ccccc54)c3=O)cnc21 , would its reported remaining enzyme activity (% of control) be below 90?
Output: true (1)

---

# tested.on: MMP-2 (Homo sapiens)
# Construct: purchased Sino Biological 10082-HNAH
# assay.method.text: MMP-2 inhibition assay (fluorogenic peptide substrate)
# Assay type: biochemical
# reported.conditions: MMP-2; concentration 1219.00 µM
# Method: The inhibition by the small molecule compounds against MMP-2/MMP-9 was measured using an assay probing the enzyme proteolytic activity on the substrate DNP-Pro-Leu-Gly-Met-Trp-Ser-Arg (Enzo Life Sciences, USA). All assays were performed in the assay buffer containing 50 mM Tris, 100 mM NaCl. […] The rate of hydrolysis was monitored by quantifying the emission at 360 nm (ex: 280 nm). The emission was measured with intervals of the 30 s for 30 min with Synergy H1 Plate Reader (Agilent, USA). […]
readout: remaining activity (%)
The answer should be a number; do not append a unit.

Input: Give its remaining activity (%) value. Item: Cc1cc(=O)[nH]c(-n2nc(C)c(CCC(=O)NCCOCCOCCNC(=O)CCC(=O)NCc3c[nH]nn3)c2C)n1 [693+787 Linker 10]
Output: 7.43

Input: Give its remaining activity (%) value. Item: O=C(CNC(=O)NC12CC3CC(CC(C3)C1)C2)NCc1c[nH]nn1 [66+787 Linker 1]
Output: 64.77

Input: Give its remaining activity (%) value. Item: O=C(CCC(=O)NCc1c[nH]nn1)NCCCCCCCCNC(=O)Cn1cnc2c(oc3ccccc32)c1=O [182+787 Linker 4]
Output: 0.00

Input: Give its remaining activity (%) value. Item: Cc1cc(=O)[nH]c(-n2nc(C)c(CCC(=O)NCc3c[nH]nn3)c2C)n1 [693+787 Linker 1]
Output: 8.68

Input: Give its remaining activity (%) value. Item: O=C(CNC(=O)NC12CC3CC(CC(C3)C1)C2)NCCCCCCCCNC(=O)c1cncc(O)c1 [66+828 Linker 4]
Output: 54.12

Input: Give its remaining activity (%) value. Item: O=C(CCCCCCC(=O)NCC12CC3CC(CC(C3)C1)C2)NCc1c[nH]nn1 [66+787 Linker 4]
Output: 72.50

Input: Give its remaining activity (%) value. Item: O=C(CCC(=O)NCc1c[nH]nn1)NCCOCCOCCNC(=O)Cn1cnc2c(oc3ccccc32)c1=O [182+787 Linker 10]
Output: 0.00

Input: Give its remaining activity (%) value. Item: O=C(Cn1cnc2c(oc3ccccc32)c1=O)NCc1c[nH]nn1 [182+787 Linker 1]
Output: 0.00

---

# tested.on: MMP-9 (Homo sapiens, UniProt P14780)
# Construct: purchased Sino Biological 10327-HNAH
# assay.method.text: MMP-9 inhibition assay (fluorogenic peptide substrate)
# Type: biochemical
# Parameters: scale not given here
# reported.conditions: MMP-9; concentration 31.25 µM
readout: remaining enzyme activity (% of control)
The answer should be a number; do not append a unit.

Input: Give its remaining enzyme activity (% of control) value. Item: Cn1c(O)nc2cc(C(=O)NCCCCCCCCNC(=O)CNC(=O)NC34CC5CC(CC(C5)C3)C4)cnc21 [66+826 Linker 4]
Output: 95.00

Input: Give its remaining enzyme activity (% of control) value. Item: Cc1cc(=O)[nH]c(-n2nc(C)c(CCC(=O)NCCCCCCCCNC(=O)c3cnc4c(c3)nc(O)n4C)c2C)n1 [693+826 Linker 4]
Output: 90.00

Input: Give its remaining enzyme activity (% of control) value. Item: Cn1c(O)nc2cc(C(=O)NCC34CC5CC(CC(C5)C3)C4)cnc21 [66+826 Linker 1]
Output: 77.01

Input: Give its remaining enzyme activity (% of control) value. Item: Cc1cc(=O)[nH]c(-n2nc(C)c(CCC(=O)NCCSCC(=O)NCCNC(=O)c3cnc4c(c3)nc(O)n4C)c2C)n1 [693+826 Linker 24]
Output: 95.02

---

# tested.on: MMP-9 (Homo sapiens, UniProt P14780)
# Construct: purchased Sino Biological 10327-HNAH
# assay.method.text: MMP-9 inhibition assay (fluorogenic peptide substrate)
# Type: biochemical
# Design: scale not given here
# reported.conditions: MMP-9; concentration 1.95 µM
Provide the recorded remaining enzyme activity (% of control) for the entries that follow.

Input: Give its remaining enzyme activity (% of control) value. Item: Cc1cc(=O)[nH]c(-n2nc(C)c(CCC(=O)NCCOCCOCCNC(=O)c3cncc(O)c3)c2C)n1
Output: 97.73

Input: Give its remaining enzyme activity (% of control) value. Item: Cc1cc(=O)[nH]c(-n2nc(C)c(CCC(=O)NCc3c[nH]nn3)c2C)n1
Output: 99.61

Input: Give its remaining enzyme activity (% of control) value. Item: O=C(CNC(=O)NC12CC3CC(CC(C3)C1)C2)NCCCCCCCCNC(=O)c1cncc(O)c1
Output: 101.95

Input: Give its remaining enzyme activity (% of control) value. Item: Cc1cc(=O)[nH]c(-n2nc(C)c(CCC(=O)NCCCCCCCCNC(=O)c3cnc4c(c3)nc(O)n4C)c2C)n1
Output: 96.18

Input: Give its remaining enzyme activity (% of control) value. Item: O=C(CNC(=O)NC12CC3CC(CC(C3)C1)C2)NCc1c[nH]nn1
Output: 106.33

Input: Give its remaining enzyme activity (% of control) value. Item: O=C(CNC(=O)NC12CC3CC(CC(C3)C1)C2)NCCOCCOCCNC(=O)c1cncc(O)c1
Output: 97.80

Input: Give its remaining enzyme activity (% of control) value. Item: Cc1cc(=O)[nH]c(-n2nc(C)c(CCC(=O)NCCCCCCCCNC(=O)CCC(=O)NCc3c[nH]nn3)c2C)n1
Output: 86.03

Input: Give its remaining enzyme activity (% of control) value. Item: Cc1cc(=O)[nH]c(-n2nc(C)c(CCC(=O)NCCNC(=O)c3cnc4c(c3)nc(O)n4C)c2C)n1
Output: 98.21

Input: Give its remaining enzyme activity (% of control) value. Item: Cc1cc(=O)[nH]c(-n2nc(C)c(CCC(=O)NCCSCC(=O)NCc3c[nH]nn3)c2C)n1
Output: 91.22

Input: Give its remaining enzyme activity (% of control) value. Item: Cn1c(O)nc2cc(C(=O)NCCCC/C=C/C(=O)CC(=O)NCC34CC5CC(CC(C5)C3)C4)cnc21
Output: 96.97

Input: Give its remaining enzyme activity (% of control) value. Item: Cn1c(O)nc2cc(C(=O)NCC34CC5CC(CC(C5)C3)C4)cnc21
Output: 80.91

Input: Give its remaining enzyme activity (% of control) value. Item: Cc1cc(=O)[nH]c(-n2nc(C)c(CCC(=O)NCCSCC(=O)NCCNC(=O)c3cnc4c(c3)nc(O)n4C)c2C)n1
Output: 94.32

Input: Give its remaining enzyme activity (% of control) value. Item: O=C(CNC(=O)NC12CC3CC(CC(C3)C1)C2)NCCSCC(=O)NCc1c[nH]nn1
Output: 105.60
